# SYSTEM_NAME: Beta-lactamase (Enterobacter cloacae, UniProt P05364)
# Sequence (P05364 whole entry): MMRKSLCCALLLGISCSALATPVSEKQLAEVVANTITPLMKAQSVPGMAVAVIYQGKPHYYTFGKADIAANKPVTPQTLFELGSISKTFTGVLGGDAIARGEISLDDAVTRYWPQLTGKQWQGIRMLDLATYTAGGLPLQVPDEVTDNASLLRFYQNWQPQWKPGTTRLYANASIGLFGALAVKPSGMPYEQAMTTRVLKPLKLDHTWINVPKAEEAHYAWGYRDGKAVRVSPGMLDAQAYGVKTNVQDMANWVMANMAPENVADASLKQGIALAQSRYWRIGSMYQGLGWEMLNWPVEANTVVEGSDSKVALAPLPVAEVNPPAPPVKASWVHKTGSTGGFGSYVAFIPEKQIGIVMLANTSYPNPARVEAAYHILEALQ
# TEST_METHOD_NOTES: Inhibitory activity against class C Beta-lactamase isolated from Enterobacter cloacae
ASSAY_ENDPOINT: pIC50
FYI, pIC50 means -log10 of a concentration in mol per litre.

{"STRUCTURE_NOTATION": "O=C1NC(=S)S/C1=C\\c1ccccc1O", "SYSTEM_NAME": "Beta-lactamase (Enterobacter cloacae, UniProt P05364)", "pIC50": 3.47}
{"STRUCTURE_NOTATION": "O=C1NC(=S)SC1=CC=Cc1ccco1", "SYSTEM_NAME": "Beta-lactamase (Enterobacter cloacae, UniProt P05364)", "pIC50": 4.21}
{"STRUCTURE_NOTATION": "O=C1NC(=S)SC1=CC=Cc1ccc([N+](=O)[O-])cc1", "SYSTEM_NAME": "Beta-lactamase (Enterobacter cloacae, UniProt P05364)", "pIC50": 5.38}

Request: Tell me measured pIC50 for O=C1NC(=S)S/C1=C\c1ccccc1[N+](=O)[O-] please.
Result: 3.54

###

# SYSTEM_NAME: Beta-lactamase (Enterobacter cloacae)
# TEST_METHOD_NOTES: Inhibitory activity against class C Beta-lactamase isolated from Enterobacter cloacae
ASSAY_ENDPOINT: pIC50
When answering, recall that pIC50 equals minus log10 of the concentration in mol/L, and write that number alone.

Request: Provide pIC50 value for the following molecule: O=C1NC(=S)SC1=CC=Cc1ccc([N+](=O)[O-])o1
Result: 6.35

Request: Give the reported pIC50 for this molecule. O=C1NC(=S)S/C1=C\CCc1ccccc1
Result: 5.01

Request: Kindly indicate its recorded pIC50. Item: O=C1/C(=C/c2ccccc2)SC(=S)N1CNc1nn[nH]n1
Result: 3.36

Request: Identify measured pIC50 associated with N#Cc1ccc(/C=C2\SC(=S)NC2=O)cc1
Result: 3.30

Request: Consider the molecule O=C1NC(=S)SC1=CC=Cc1ccccc1 and give its recorded pIC50.
Result: 4.12

Request: Please give the documented pIC50 of O=C1/C(=C/c2ccccc2)SC(=S)N1CNc1nncs1
Result: 3.61

Request: Provide only the value of recorded pIC50 for O=C1NC(=S)S/C1=C1/C(=O)Nc2ccccc21
Result: 5.59

Request: Identify measured pIC50 associated with O=C1NC(=S)S/C1=C\c1cn(-c2ccccc2)nn1
Result: 4.08

###

Attribute: pIC50
# SYSTEM_NAME: Beta-lactamase TEM (Escherichia coli)
# TEST_METHOD_NOTES: Inhibitory activity against class A Beta-lactamase TEM isolated from Escherichia coli
Value format note: pIC50 is -log10 of concentration (mol/L); just state the number.

Known results for compounds:
{"STRUCTURE_NOTATION": "O=C1NC(=S)S/C1=C\\CCc1ccccc1", "SYSTEM_NAME": "Beta-lactamase TEM (Escherichia coli)", "pIC50": 4.49}
{"STRUCTURE_NOTATION": "CC(=O)Nc1ccccc1/C=C1\\SC(=S)NC1=O", "SYSTEM_NAME": "Beta-lactamase TEM (Escherichia coli)", "pIC50": 3.72}
{"STRUCTURE_NOTATION": "O=C1NC(=S)SC1=CC=Cc1ccc([N+](=O)[O-])o1", "SYSTEM_NAME": "Beta-lactamase TEM (Escherichia coli)", "pIC50": 4.00}

Now for a further compound.
Request: Supply pIC50 value. Item: O=C1NC(=S)SC1=CC=Cc1ccco1
Result: 4.00

Where do the numbers come from? From ChEMBL document CHEMBL1132742.
